Molecular target: CCR9 (Homo sapiens, UniProt P51686)
Construct: CCR9-expressing cells (such as a T cell line MOLT-4 cells)
Sequence (P51686 1-369): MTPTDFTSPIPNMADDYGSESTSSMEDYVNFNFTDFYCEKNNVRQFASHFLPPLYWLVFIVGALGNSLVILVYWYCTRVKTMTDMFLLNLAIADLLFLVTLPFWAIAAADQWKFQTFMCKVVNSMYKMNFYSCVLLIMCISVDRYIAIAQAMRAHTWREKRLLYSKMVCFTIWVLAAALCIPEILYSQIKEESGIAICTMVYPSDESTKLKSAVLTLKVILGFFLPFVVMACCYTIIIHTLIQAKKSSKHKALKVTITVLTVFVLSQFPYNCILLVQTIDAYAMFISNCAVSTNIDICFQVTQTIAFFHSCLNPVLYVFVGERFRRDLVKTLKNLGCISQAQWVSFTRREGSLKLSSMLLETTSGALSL
Experiment: chemotaxis (conventional migration) assay and/or calcium mobilization (calcium flux) assay
Conditions: either or both of the chemotaxis assay and calcium mobilization assays; MOLT-4 cells, TECK
assay.endpoint: IC50

[
  {
    "smiles.repr": "Cc1c(C(=O)c2cc(Cl)ccc2NS(=O)(=O)c2ccc(OC(F)(F)F)cc2)ccc[n+]1[O-]",
    "result": "< 1 µM"
  },
  {
    "smiles.repr": "Cc1cc(C(=O)c2cc(Cl)ccc2NS(=O)(=O)c2ccc(S(C)(=O)=O)cc2)ccn1",
    "result": "> 1 µM"
  },
  {
    "smiles.repr": "O=C(c1cc[n+]([O-])cc1)c1cc(Cl)ccc1NS(=O)(=O)c1ccc(-c2cnco2)cc1",
    "result": "< 1 µM"
  },
  {
    "smiles.repr": "CC(C)(c1ccc(S(=O)(=O)Nc2ccc(Cl)cc2C(=O)c2ccccn2)cc1)c1ncco1",
    "result": "< 1 µM"
  },
  {
    "smiles.repr": "Cc1ccc(C(=O)c2cc(Cl)ccc2NS(=O)(=O)c2ccc(OC(C)C)cc2)c[n+]1[O-]",
    "result": "< 1 µM"
  },
  {
    "smiles.repr": "COC(=O)CCc1ccc(S(=O)(=O)Nc2ccc(Cl)cc2C(=O)c2cccnc2C)cc1",
    "result": "< 1 µM"
  },
  {
    "smiles.repr": "CC(C)(C)c1ccc(S(=O)(=O)Nc2ccc(Cl)cc2C(=O)c2cccc[n+]2[O-])cc1",
    "result": "< 1 µM"
  },
  {
    "smiles.repr": "C[C@H]1OC(C)(c2ccc(S(=O)(=O)Nc3ccc(Cl)cc3C(=O)c3ccncc3)cc2)O[C@@H]1C",
    "result": "> 1 µM"
  },
  {
    "smiles.repr": "COc1cc(C(=O)c2cc(Cl)ccc2NS(=O)(=O)c2ccc(C(C)(C)C)cc2)ccn1",
    "result": "< 1 µM"
  }
]
